For each of the compounds below, state its viability at 10 µM.
test system: LOX IMVI; experiment: Cytotoxicity against human LOXIMVI cells assessed as viable cells at 10 uM after 48 hrs by sulforhodamine B assay; type: functional; conditions: read-out: Activity
Where a SMILES comes first, the peptide text is derived from it.
Answers are plain numbers, in %.

Guide cases for viability at 10 µM, answers given:
CC[C@H](C)[C@@H]1NC(=O)[C@H]([C@@H](C)CC)NC(=O)[C@H]([C@@H](C)CC)NC(=O)[C@@H]2CCCN2C(=O)[C@H]([C@H](C)O)NC(=O)[C@@H]2CCCN2C(=O)[C@@H]2CCCN2C(=O)[C@H](CC(C)C)NC1=O = 100
CC[C@@H](C)[C@@H]1NC(=O)[C@@H]2CCCN2C(=O)[C@H](Cc2ccccc2)NC(=O)[C@H](CC(C)C)NC(=O)[C@@H]2CCCN2C(=O)[C@H]([C@H](C)CC)NC(=O)[C@H](CO)NC1=O = 88
CC[C@@H](C)[C@@H]1NC(=O)[C@@H]2CCCN2C(=O)[C@H](CO)NC(=O)[C@H](Cc2ccccc2)NC(=O)[C@H]([C@H](C)CC)NC(=O)[C@@H]2CCCN2C(=O)[C@H](Cc2ccccc2)NC1=O = 87.6

# viability at 10 µM (compound: CC(C)[C@@H]1NC(=O)[C@H](Cc2ccccc2)NC(=O)[C@@H]2CCCN2C(=O)[C@H]([C@@H](C)O)NC(=O)[C@H](C)NC(=O)[C@@H]2CCCN2C(=O)[C@@H]2CCCN2C1=O [EURYJANICIN B] (cyclo(ATPFVPP)) ) is 88.6
